Molecular target: Aminopeptidase N (Plasmodium falciparum FcB1/Columbia, UniProt O96935)
Sequence (O96935 whole entry): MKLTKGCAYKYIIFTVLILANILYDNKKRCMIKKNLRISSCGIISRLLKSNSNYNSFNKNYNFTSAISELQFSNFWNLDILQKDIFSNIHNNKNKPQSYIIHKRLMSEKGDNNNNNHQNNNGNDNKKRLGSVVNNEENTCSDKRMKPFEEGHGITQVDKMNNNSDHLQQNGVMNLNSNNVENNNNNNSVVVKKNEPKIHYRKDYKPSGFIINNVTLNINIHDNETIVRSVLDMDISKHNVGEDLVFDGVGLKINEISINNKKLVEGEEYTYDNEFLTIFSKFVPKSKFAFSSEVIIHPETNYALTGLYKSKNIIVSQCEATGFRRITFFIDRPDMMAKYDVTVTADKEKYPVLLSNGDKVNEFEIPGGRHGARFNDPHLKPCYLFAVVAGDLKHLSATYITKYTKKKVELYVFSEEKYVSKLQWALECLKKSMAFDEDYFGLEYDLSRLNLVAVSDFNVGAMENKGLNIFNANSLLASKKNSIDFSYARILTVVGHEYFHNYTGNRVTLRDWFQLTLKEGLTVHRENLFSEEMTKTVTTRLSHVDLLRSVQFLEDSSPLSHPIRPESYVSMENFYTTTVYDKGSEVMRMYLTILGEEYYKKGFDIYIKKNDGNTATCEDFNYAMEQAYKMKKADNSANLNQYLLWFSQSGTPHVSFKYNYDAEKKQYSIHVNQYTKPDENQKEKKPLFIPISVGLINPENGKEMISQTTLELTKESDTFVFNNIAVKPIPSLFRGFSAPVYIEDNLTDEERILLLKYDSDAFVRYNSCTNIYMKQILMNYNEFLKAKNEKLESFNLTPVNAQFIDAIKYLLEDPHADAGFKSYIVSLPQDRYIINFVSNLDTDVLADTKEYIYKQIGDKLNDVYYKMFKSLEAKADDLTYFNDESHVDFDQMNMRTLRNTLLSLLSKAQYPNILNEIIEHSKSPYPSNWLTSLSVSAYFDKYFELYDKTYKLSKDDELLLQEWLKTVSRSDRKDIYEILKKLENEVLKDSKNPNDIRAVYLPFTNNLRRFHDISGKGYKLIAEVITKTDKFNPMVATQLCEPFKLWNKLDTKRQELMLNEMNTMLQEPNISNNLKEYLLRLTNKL
Experiment: P. falciparum M1AAP inhibitors, biochemical, fluorogenic H-Leu-NHMec substrate, 1536-well (AID 1445)
Design: species or system Plasmodium falciparum 3D7, 3D7
Calls of active or inactive are those of the source. No rule for the calls is given here.
Some molecules, each annotated with its measured IC50.

MOLECULE: O=C(NCc1ccco1)C1CCCN(S(=O)(=O)c2cccc3nonc23)C1 (stereo not given)
IC50: 18.6 µM (active)
//
MOLECULE: C#CCCOC(=O)N1C2=NC(C(=O)OC)=C(C(=O)OC)[C@@H]3N(CC=C)c4ccccc4[C@]23C[C@H]1C(=O)OC
IC50: 58.5 µM (active)
//
MOLECULE: COc1ccc(C(C)=O)cc1CSc1nc2cc(C(=O)O)ccc2c(=O)n1Cc1ccccc1
IC50: 83.5 µM (active)
//
MOLECULE: COc1ccc(NC(=O)CSc2nc(O)c3c(C(F)(F)F)cc(-c4cccs4)nc3n2)c(OC)c1
IC50: 56.5 µM (active)
//
MOLECULE: COc1cc(/C=N/NC(=O)C(Cc2c[nH]c3ccccc23)NC(=O)OCc2ccccc2)cc([N+](=O)[O-])c1O (stereo not given)
IC50: 4.75 µM (active)
